- targetSystem: Cbl-b (Homo sapiens)
- measurementDescription: Cbl-b inhibition assay (Cbl-b activity assay, FRET, Biological Example 1; 100 mM NaCl, 60 nM Src kinase)
- Format: biochemical
- setupConditions: upper bound stated in text lists; read-out: IC50 values in the Cbl-b inhibition assay of Biological Example 1
- Excerpt: FIG. 1A and FIG. 1B show a series of diagrams depicting the activity assay utilized to assay inhibition of Cbl-b activity by a Cbl-b inhibitor. FIG. 1A: The activity assay mixture comprises an N-terminal biotinylated Avi-tagged Cbl-b, an E2 enzyme (i.e., UbcH5B) irreversibly conjugated to Bodipy-Fluorescein tagged ubiquitin (i.e., UbcH5B-Ub), a Src kinase, streptavidin-terbium, and assay buffer. […]
propertyMeasured: IC50

State the recorded IC50 for every item in the following list.
1. C[C@H](Cc1nncn1C)c1cccc(N2Cc3c(cc(CN4CC(F)(F)C4)cc3C(F)(F)F)C2=O)c1
2. C[C@H](Sc1nncn1C)c1ccnc(NC(=O)c2ccc3cccc(F)c3n2)c1

1. ≤ 0.1 µM
2. ≤ 10 µM

State the recorded IC50 for every item in the following list.
1. Cc1ccn(CC(C)c2cccc(NC(=O)c3cccc(C(F)(F)F)n3)c2)n1 (stereo not drawn)
2. Cn1cnnc1[C@H](F)C1(c2cccc(N3Cc4c(cc(CN5CCC(F)CC5)cc4C(F)(F)F)C3=O)c2)COC1 [Example 670b]
3. C[C@H](Cc1nncn1C)c1cccc(NC(=O)c2cc3ccccc3cn2)c1
4. CC(c1cc2c(c(C3CC3)n1)CN(c1cccc(C3(Cc4nncn4C)COC3)c1)C2=O)N1CCCCC1 (stereo not drawn)

≤ 10 µM
≤ 0.1 µM
≤ 0.5 µM
≤ 0.1 µM

State the recorded IC50 for every item in the following list.
1. C[C@H](Sc1nncn1C)c1cccc(NC(=O)c2cc(C(=O)N3CCC(S(C)(=O)=O)C3)ccn2)c1 (stereo partly drawn)
2. C[C@H](Sc1nncn1C)c1cccc(NC(=O)c2cccc3scnc23)c1
3. C[C@H](Cc1nncn1C)c1cccc(NC(=O)c2cccc(CCO)n2)c1
4. Cc1conc1CC(C)c1cccc(N2Cc3c(cccc3C(F)(F)F)C2=O)c1 (stereo not drawn)
5. C[C@H](Cc1nncn1C)c1cccc(NC(=O)c2cc(C(=O)N3CCC(C)(O)CC3)ccn2)c1

1: ≤ 10 µM; 2: ≤ 10 µM; 3: ≤ 1 µM; 4: ≤ 0.5 µM; 5: ≤ 10 µM

###

- targetSystem: Cbl-b (Homo sapiens, UniProt Q13191)
- Sequence (Q13191 36-427): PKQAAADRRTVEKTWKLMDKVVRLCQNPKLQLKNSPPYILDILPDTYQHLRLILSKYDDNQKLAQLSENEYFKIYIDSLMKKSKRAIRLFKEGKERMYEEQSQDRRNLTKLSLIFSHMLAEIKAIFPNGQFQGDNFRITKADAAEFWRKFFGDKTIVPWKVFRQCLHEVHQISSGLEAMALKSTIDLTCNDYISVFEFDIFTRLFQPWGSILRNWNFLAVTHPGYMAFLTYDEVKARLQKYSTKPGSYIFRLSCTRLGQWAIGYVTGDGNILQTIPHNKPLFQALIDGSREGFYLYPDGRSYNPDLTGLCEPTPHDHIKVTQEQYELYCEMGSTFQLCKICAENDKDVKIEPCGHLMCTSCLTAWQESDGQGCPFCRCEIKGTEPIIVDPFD
- measurementDescription: Cbl-b inhibition assay (Cbl-b activity assay, FRET, Biological Example 1; 100 mM NaCl, 60 nM Src kinase)
- Format: biochemical
- setupConditions: upper bound stated in text lists; read-out: IC50 values in the Cbl-b inhibition assay of Biological Example 1
propertyMeasured: IC50

The following compounds have reported results that may help.
>>> result("C[C@@H](c1cc2c(c(C(F)(F)F)c1)CN(c1cccc(C3(Cc4nncn4C)COC3)c1)C2=O)N1C[C@H]2C[C@H]2C1 [Compound 541a]")
"≤ 100 nM"
>>> result("Cn1cnnc1CC1(c2cccc(N3Cc4c(cc(CN5CC(C(=O)O)C5)cc4C(F)(F)F)C3=O)c2)COC1 [Compound 428]")
"≤ 100 nM"
>>> result("Cn1cnnc1C(F)(F)[C@](C)(F)c1cccc(N2Cc3c(cccc3C(F)(F)F)C2=O)c1 [Compound 296a]")
"≤ 500 nM"

Moving on to another compound below.
Noted for C[C@H](Cc1nncn1C)c1cc(NCCO)nc(N2Cc3c(cccc3C(F)(F)F)C2=O)c1 [Compound 357] : its IC50 reads ≤ 300 nM

Origin of values: patent US20220324835A1
